Hey, just so you know, these numbers are from patent US20220281997A1.

TARGET SYSTEM: T1, AS200 VHH (camel-derived)
T1 construct: One of the 10 different camel-derived nanobodies; not shown: His tag (VHH-His)
T1 sequence (VHH, as listed by the source): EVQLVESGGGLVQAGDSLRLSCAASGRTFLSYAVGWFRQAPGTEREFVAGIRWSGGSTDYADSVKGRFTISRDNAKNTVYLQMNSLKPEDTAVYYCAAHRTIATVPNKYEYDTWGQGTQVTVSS
EXPERIMENTAL DETAILS: indirect ELISA, VHH coated
TEST READOUT: binding result

1. R166.G8 (antibody, V domains shown, Rabbit monoclonal; also called clone R166.G8) VH: LEQSGGGAEGGLVKPGGSLELCCKASGFSLSNIYWICWVRQAPGTGLEWIGCINSGSNSYTYYANWVDGRFTLSRDIDQSTGCLQLNSLTAADTAMYYCARDRDAADTSDWSLNFWGQGTLVTVSS VL: QVLTQTPSSVSAAVGGTVTISCQSSDSVNNDNWLAWYQQKPGQPPKLLIYQASKLASGVPSRFSGSGSGTQFTLTISGVQCDDAANYYCQGTGYSSTWYVAFGGGTEVVVKG :: binds
2. R166.H8 (antibody, V domains shown, Rabbit monoclonal; also called clone R166.H8) VH: QSVEESGGRLVTPGTPLTLTCTVSGFSLSSFAMSWVRQAPGKGLEWIGIIYATGGTRDYATWAAGRFTISKTSTTVGLKMTSPTTEDTATYFCARDRSPDYSAAFNLWGQGTLVTVSS VL: IVMTQTPSSKSVPVGDTVTINCQASESVYSNNHLAWFQQKPGQPPKLLIYSASTLESGVPSRFKGSGSGTQFTLTISGVQCDDAATYYCAGYKSSDTDGTSFGGGTEVVVKG :: binds
3. R166.G2 (antibody, V domains shown, Rabbit monoclonal; also called clone R166.G2) VH: QSLEESGGRLVKPDETLTITCTVSGIDLSSDAMSWVRQAPGKGLEWIGLINRYGNTYYASWAKGRFTISKTSTTVDLKVTSLTTEDTATYFCARYGTDSDFYFLDLWGQGTLVTVSS VL: DIVMTQTPASVSEPVGGTVTIKCQASQSIYSYLSWYQQKPGQRPKLLIYKASKLVSGVPSRFRGSGSGTEFTLTISDLECADAASYYCQSDWLISSNGNTFGGGTEVVVTG :: binds
